- System: Leishmania major
- assayRemarks: Antileishmanial activity against promastigote form of Leishmania major after 72 hr by Neubauer counting analysis
- Assay type: functional, organism-based
readoutName: IC50 (mg/L)
One number for each entry, in mg/L.

Before answering, review these 6 worked examples.
- smilesRecord: "COc1ccc(-c2nc3ccccc3[nH]2)cc1"
  measValue: 0.81
- smilesRecord: "CCCCOc1ccc(-c2nc3ccccc3[nH]2)cc1"
  measValue: 0.65
- smilesRecord: "O=[N+]([O-])c1cccc(-c2nc3cc([N+](=O)[O-])ccc3[nH]2)c1"
  measValue: 0.79
- smilesRecord: "Cc1ccc(-c2nc3cc([N+](=O)[O-])ccc3[nH]2)o1"
  measValue: 0.64
- smilesRecord: "c1c[nH]c(-c2nc3ccccc3[nH]2)c1"
  measValue: 0.63
- smilesRecord: "Oc1ccc(-c2nc3ccccc3[nH]2)cc1"
  measValue: 0.92

Go through the items and report each one's IC50.
1. CC(C)c1ccc(-c2nc3ccccc3[nH]2)cc1
2. COc1cccc(-c2nc3ccccc3[nH]2)c1
3. Cc1ccc(-c2nc3ccccc3[nH]2)o1
4. Cc1ccc(-c2nc3ccccc3[nH]2)cc1
5. c1ccc2[nH]c(-c3c[nH]c4ccccc34)nc2c1
6. O=[N+]([O-])c1ccc2[nH]c(-c3ccccc3[N+](=O)[O-])nc2c1

[0.64, 0.77, 0.84, 0.79, 0.87, 0.73]

According to the records, this molecule "O=[N+]([O-])c1ccc2[nH]c(-c3ccc[nH]3)nc2c1" displays IC50 of 0.91

Origin of the recorded values: ChEMBL document CHEMBL3046371
